The following molecules each carry a recorded pIC50 for TEAD2 (Homo sapiens (Human), UniProt Q15562).
pIC50: −log10 of the molar value.
measurement-name: pIC50

* C=C(F)C(=O)N1CC(c2nn(-c3ccc(OC(F)(F)F)cc3)c3nccc(C#N)c23)C1 | 7.17
* O=C(/C=C/CO)N1CC(c2nn(-c3ccc(OC(F)(F)F)cc3)c3nccc([C@@H](O)CO)c23)C1 | 7.57
* C=CC(=O)NCc1nn(-c2ccc(OC(F)(F)F)cc2)c2cccnc12 | 5.92
* C=CC(=O)NCc1nn(-c2ccc(OC(F)(F)F)cc2)c2nccc(-c3c[nH]nn3)c12 | 6.92
